Assay: Dog PK (IV and PO)
Assay type: in vivo, beagle dogs
Conditions: beagle, in vivo, IV 2 mg/kg, read-out: Vd,ss
Excerpt: Table 9 PK Parameters for MRTX0902 (32) across Species | column: dog
Observed Property: Vd (L/kg)
Numbers only, in L/kg.

Please give the measured Vd for this compound: Cc1c(C#N)cccc1[C@@H](C)Nc1nnc(C)c2cnc(N3CCOCC3)cc12 [Compound 32] 0.48

----------
biological target: ADRB2 (Homo sapiens); assay: Safetyscan cAMP; details: antagonist mode, read-out: RC50 (IC50) ADRB2 Antagonist
Sequence (P07550 whole entry): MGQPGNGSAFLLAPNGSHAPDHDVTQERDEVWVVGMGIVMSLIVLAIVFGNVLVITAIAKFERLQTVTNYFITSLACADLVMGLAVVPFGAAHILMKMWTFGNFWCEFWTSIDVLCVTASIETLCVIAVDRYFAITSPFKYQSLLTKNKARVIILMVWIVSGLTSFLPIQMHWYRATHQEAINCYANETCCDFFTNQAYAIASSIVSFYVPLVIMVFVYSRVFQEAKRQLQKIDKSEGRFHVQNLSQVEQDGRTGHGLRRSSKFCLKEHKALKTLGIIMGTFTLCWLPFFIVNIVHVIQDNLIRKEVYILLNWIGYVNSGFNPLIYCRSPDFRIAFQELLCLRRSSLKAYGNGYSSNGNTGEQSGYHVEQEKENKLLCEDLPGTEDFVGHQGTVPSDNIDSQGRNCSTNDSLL
Observed Property: IC50

Please give the measured IC50 for this molecule: Cc1c(C#N)cccc1[C@@H](C)Nc1nnc(C)c2cnc(N3CCOCC3)cc12 > 10 µM

----------
Exercise: state measured log10(CLint scaled) for each of the molecules provided.
assay: Human liver microsome intrinsic clearance; format: in vitro ADME; settings: human liver microsomes
Kindly note that the scale is log10 and the underlying CLint scaled is in mL/min/kg.

line_notation=Cc1nnc(N[C@H](C)c2cccc(C(F)(F)F)c2F)c2cc(N3CCOCC3)ncc12 experimental_value=2.33
line_notation=Cc1c([C@@H](C)Nc2nnc(C)c3cnc(N4CCNCC4)cc23)cccc1C(F)(F)F experimental_value=1.43
line_notation=Cc1c([C@@H](C)Nc2nnc(C)c3cnc(N4CCOCC4)cc23)cccc1C(F)(F)F experimental_value=2.06

Quick request: log10(CLint scaled) for each listed item, please.
1. Cc1nn(C)cc1[C@@H](C)Nc1nnc(C)c2cnc(N3CCOCC3)cc12
2. Cc1nnc(N[C@H](C)c2cccc(C(F)(F)F)n2)c2cc(N3CCOCC3)ncc12
3. Cc1c([C@@H](C)Nc2nnc(C)c3cnc(N4CCOCC4)cc23)cccc1S(C)(=O)=O
4. Cc1ncccc1[C@@H](C)Nc1nnc(C)c2cnc(N3CCOCC3)cc12

1: 1.18; 2: 2.31; 3: 0.90; 4: 1.32

----------
tested on: phosphorylated ERK1/2 (pERK) in MKN1 cells; test: cells; type: cell-based; conditions: Homo sapiens, MKN-1; In-Cell Western Assay measuring pERK; read-out: MKN1 Cell IC50
Observed Property: IC50

Worked examples follow.
line_notation=COc1cc2cnnc(N[C@H](C)c3cccc4ccccc34)c2cc1OC experimental_value="> 10 µM"
line_notation=COc1nnc(N[C@H](C)c2cccc(C(F)(F)F)c2C)c2cc(N3CCNCC3)ccc12 experimental_value="> 10 µM"
line_notation=COc1cc2cnnc(N[C@H](C)c3ccccc3)c2cc1OC experimental_value="> 10 µM"
line_notation=Cc1c([C@@H](C)Nc2nnc(C)c3cnc(N4CCOCC4)cc23)cccc1C(F)(F)F experimental_value="0.026 µM"
line_notation=Cc1c(C#N)cccc1[C@@H](C)Nc1nnc(C)c2cc(F)c(N3CCOCC3)cc12 experimental_value="0.12 µM"
line_notation=COc1cc2cnnc(N[C@H](C)c3ccccc3C)c2cc1OC experimental_value="> 10 µM"
line_notation=Cc1c(C#N)cccc1[C@@H](C)Nc1nnc(C)c2cc(C#N)c(N3CCOCC3)cc12 experimental_value="0.49 µM"

// switching to the query compound
Please give the measured IC50 for this compound: Cc1c([C@@H](C)Nc2nnc(C(F)(F)F)c3ccc(N4CCNCC4)cc23)cccc1C(F)(F)F > 10 µM

----------
target: human EGFR (Homo sapiens, UniProt P00533); construct: purchased Reaction Biology; assay type: biochemical
Sequence (P00533 25-1210): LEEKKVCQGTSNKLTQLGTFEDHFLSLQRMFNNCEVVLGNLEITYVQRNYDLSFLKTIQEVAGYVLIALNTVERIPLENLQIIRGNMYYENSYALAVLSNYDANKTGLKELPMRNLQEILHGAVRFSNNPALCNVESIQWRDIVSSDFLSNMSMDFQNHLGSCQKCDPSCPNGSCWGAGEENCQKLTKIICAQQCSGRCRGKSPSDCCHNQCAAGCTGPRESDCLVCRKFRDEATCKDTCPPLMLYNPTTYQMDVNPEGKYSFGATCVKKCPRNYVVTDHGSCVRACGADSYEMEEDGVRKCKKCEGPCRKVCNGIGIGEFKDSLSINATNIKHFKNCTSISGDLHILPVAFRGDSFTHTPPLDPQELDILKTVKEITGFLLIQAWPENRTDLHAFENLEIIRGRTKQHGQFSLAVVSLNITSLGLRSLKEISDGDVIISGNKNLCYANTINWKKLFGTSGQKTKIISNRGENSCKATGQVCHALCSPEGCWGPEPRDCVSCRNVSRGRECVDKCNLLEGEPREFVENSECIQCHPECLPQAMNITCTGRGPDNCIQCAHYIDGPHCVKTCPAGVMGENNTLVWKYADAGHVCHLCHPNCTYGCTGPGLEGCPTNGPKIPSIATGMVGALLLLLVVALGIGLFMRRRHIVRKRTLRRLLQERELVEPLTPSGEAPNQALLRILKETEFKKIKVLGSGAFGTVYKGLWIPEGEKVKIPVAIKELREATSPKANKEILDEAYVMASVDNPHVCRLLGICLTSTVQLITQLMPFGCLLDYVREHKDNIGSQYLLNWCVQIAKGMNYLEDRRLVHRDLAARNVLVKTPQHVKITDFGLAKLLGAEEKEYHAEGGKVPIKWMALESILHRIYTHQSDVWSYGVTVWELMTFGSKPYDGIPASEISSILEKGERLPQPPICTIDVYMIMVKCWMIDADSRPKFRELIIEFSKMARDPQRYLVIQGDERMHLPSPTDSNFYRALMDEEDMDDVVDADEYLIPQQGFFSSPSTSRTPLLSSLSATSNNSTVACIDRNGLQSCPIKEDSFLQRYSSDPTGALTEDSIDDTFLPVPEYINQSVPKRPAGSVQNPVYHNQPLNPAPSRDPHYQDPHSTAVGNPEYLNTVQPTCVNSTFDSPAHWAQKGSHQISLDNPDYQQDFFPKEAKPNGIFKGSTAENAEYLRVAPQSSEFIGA
Observed Property: IC50

Please give the measured IC50 for this compound: CNCc1ccccc1-c1csc([C@@H](C)Nc2nncc3cc(OC)c(OC)cc23)c1 [Compound 11] > 10 µM
